These entries and their values trace back to the OPERA property sets (Mansouri et al. 2018).

- run-conditions: 20 °C
measured-quantity: solubility (mM)
Entry rule: numbers only, all in mM.

Example entries begin here.
{"columns": ["compound", "solubility [mM]"],
 "data": [
  ["CCCOC(C)=O", 185],
  ["CCOC(=O)CCCCC(=O)OCC", 20.9],
  ["COC(C)=O", 3280],
  ["CC(Cl)C(Cl)(Cl)C(O)O (configuration not stated)", 136],
  ["C[C@H]1C[C@@H](OC(=O)c2ccccc2)CC(C)(C)N1", 12]
]}

Report solubility for `F[P-](F)(F)(F)(F)F.N#[N+]c1ccccc1`
36

Report solubility for `CC(=O)OC(C)C`
303

----------
- run-conditions: 25 °C
Catalogue of solubility values
Entry rule: numbers only, all in µM.

{"columns": ["molecule", "solubility (µM)"],
 "data": [
  ["O=C(O)/C=C/c1ccc2c(c1)OCO2", 141],
  ["O=C(O)c1ccccc1Br", 9230],
  ["Cc1cccc(S(N)(=O)=O)c1", 45600],
  ["O=C(O)C=Cc1cccc(Br)c1", 2310],
  ["O=C1c2ccccc2C(=O)c2cc(O)ccc21", 4.91],
  ["COc1ccc(C=CC(=O)O)cc1", 5150],
  ["CCCCCCCCC(C(=O)O)C(=O)O", 1200]
]}

Turning now to a further record.
Report solubility for `O=C(O)c1ccc(I)cc1`
109

----------
- run-conditions: 25 °C
measured-quantity: solubility (µM)
Entry rule: numbers only, all in µM.

Report solubility for `CC(C)c1ccc(C(=O)O)cc1`
920

Report solubility for `CC(=O)Nc1ccc([N+](=O)[O-])cc1`
12200

Report solubility for `O=C1c2ccc(O)cc2C(=O)c2ccc(O)cc21`
1.29
